tested on: tbaqp2/tbaqp3 null cells expressing TbAQP2 L84W; test: microbe, parasite or virus in culture; assay type: cell-based, Trypanosoma brucei brucei; settings: Trypanosoma brucei, read-out: EC50, single repeats
observation_type: pEC50
Please keep in mind that pEC50 is minus log10 of the molar concentration; only the number is needed.

Tell me pEC50 reported for "N=C(N)c1ccc(/N=N/Nc2ccc(C(=N)N)cc2)cc1"
7.02

====

biological target: TbAQP2/HAPT1 (Trypanosoma brucei brucei); assay: cell-based; format: cell-based
Sequence (Q6ZXT3 whole entry): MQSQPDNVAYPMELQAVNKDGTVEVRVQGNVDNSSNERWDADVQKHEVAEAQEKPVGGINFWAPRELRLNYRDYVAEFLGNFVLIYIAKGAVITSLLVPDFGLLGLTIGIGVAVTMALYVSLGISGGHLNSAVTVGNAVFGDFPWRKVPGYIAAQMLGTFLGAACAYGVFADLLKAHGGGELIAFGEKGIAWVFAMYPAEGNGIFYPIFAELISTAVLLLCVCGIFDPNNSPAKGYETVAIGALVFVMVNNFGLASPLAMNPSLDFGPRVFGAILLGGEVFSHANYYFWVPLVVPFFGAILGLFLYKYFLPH
observation_type: δ(ΔG^0) PMD (kcal/mol)
Quick reminder: number only, in kcal/mol, skip the unit.

Tell me δ(ΔG^0) PMD reported for "Cc1ccc(OCCCCCOc2ccc(C(=N)N)cc2)cc1"
2.56

Tell me δ(ΔG^0) PMD reported for "N=C(N)c1ccc(-c2ccc(-c3ccc(C(=N)N)cc3)o2)cc1"
4.13

Tell me δ(ΔG^0) PMD reported for "Cl.Cl.c1cc(-c2ccc(-c3ccc(CCC4=NCCN4)cc3)s2)ccc1CCC1=NCCN1"
2.63

Tell me δ(ΔG^0) PMD reported for "N=C(N)c1ccc(-c2ccc(-c3ccc(C(=N)N)cc3)[se]2)cc1"
1.79
